- System: Klebsiella pneumoniae
- ASSAY_METHOD_TEXT: Antibacterial activity against Klebsiella pneumoniae clinical isolate after 24 hrs by disc diffusion method
- Format: functional
# diameter of the inhibition zone (DIZ) per record follows
Quick reminder: number only, in mm, skip the unit.

Sample answers from the record:
CCCC1=NOC(CCCCCCCCC(=O)OC)C1 (stereo not given)    17.1
CCCCCCCCC1C(CCC)=NOC1CCCCCCCC(=O)OC (stereo not given)    18.5
CCCCCC1C(CCC)=NOC1CC[C@H](O)CCCCCCCC(=O)OC (stereo not given in full)    18.9
CCCc1cc(CCCCCCCCC(=O)O)on1    18.3

For the next question, use this compound.
// compound CCCCCC[C@@H](O)CC1C(CCC)=NOC1CCCCCCCC(=O)OC (stereo not given in full) , assay Klebsiella pneumoniae, diameter of the inhibition zone (DIZ) value: 19.2
